Values compiled from paper PMC6627609.

Target: LsrK (Salmonella typhimurium, UniProt Q8ZKQ6)
Sequence (Q8ZKQ6 whole entry): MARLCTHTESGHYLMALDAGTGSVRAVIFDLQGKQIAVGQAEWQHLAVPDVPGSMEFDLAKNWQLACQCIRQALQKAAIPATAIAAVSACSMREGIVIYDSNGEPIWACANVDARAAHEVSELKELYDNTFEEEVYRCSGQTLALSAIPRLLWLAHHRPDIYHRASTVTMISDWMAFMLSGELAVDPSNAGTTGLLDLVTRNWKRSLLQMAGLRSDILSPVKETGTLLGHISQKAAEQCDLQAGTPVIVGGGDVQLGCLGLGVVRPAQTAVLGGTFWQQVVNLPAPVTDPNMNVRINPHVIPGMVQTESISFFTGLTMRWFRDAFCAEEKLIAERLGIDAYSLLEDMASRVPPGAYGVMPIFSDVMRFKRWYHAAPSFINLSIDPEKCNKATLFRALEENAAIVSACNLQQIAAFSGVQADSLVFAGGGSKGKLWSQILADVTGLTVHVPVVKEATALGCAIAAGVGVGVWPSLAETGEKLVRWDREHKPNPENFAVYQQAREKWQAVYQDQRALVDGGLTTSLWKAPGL
Experiment: biochemical
Assay type: biochemical, S. typhimurium
Where a name gives a salt, the structure may show the parent alone.
Items are presented alongside their recorded inhibition at 50 µM.

{"compound": "C[C@H](CCC(=O)O)[C@H]1CC[C@H]2[C@@H]3C(=O)C[C@@H]4CC(=O)CC[C@]4(C)[C@H]3CC(=O)[C@]12C [DEHYDROCHOLIC ACID]", "inhibition at 50 µM (%)": 4}
{"compound": "O=C(O)CCC1NCC2CC1CN1CCCCC21 (stereo not drawn) [LUPANYL ACID HYDROCHLORIDE]", "inhibition at 50 µM (%)": 1}
{"compound": "CCc1oc2ccccc2c1C(=O)c1cc(Br)c(O)c(Br)c1", "inhibition at 50 µM (%)": 106}
{"compound": "Nc1ncnc2c1ncn2[C@H]1C[C@H](O)[C@@H](CO)O1", "inhibition at 50 µM (%)": 3}
{"compound": "Nc1nc(/C(=C/CC(=O)O)C(=O)N[C@@H]2C(=O)N3C(C(=O)O)=CCS[C@H]23)cs1", "inhibition at 50 µM (%)": 105}
{"compound": "C[C@H]1CC[C@]2(NC1)O[C@H]1C[C@H]3[C@@H]4CC[C@H]5C[C@@H](O[C@@H]6O[C@H](CO)[C@H](O[C@@H]7O[C@H](CO)[C@@H](O)[C@H](O[C@@H]8OC[C@@H](O)[C@H](O)[C@H]8O)[C@H]7O[C@@H]7O[C@H](CO)[C@@H](O)[C@H](O)[C@H]7O)[C@H](O)[C@H]6O)CC[C@]5(C)[C@H]4CC[C@]3(C)[C@H]1[C@@H]2C", "inhibition at 50 µM (%)": 2}

* * *

Biological target: LsrK (Salmonella typhimurium, UniProt Q8ZKQ6)
Assay: biochemical
Format: biochemical, S. typhimurium
Details: 50 µM

{"substance": "CHLOROPHYLLIDE Cu COMPLEX Na SALT", "Inhibition (%)": 104}
{"substance": "HECOGENIN", "Inhibition (%)": 2}
{"substance": "POLYMYXIN B SULFATE", "Inhibition (%)": 48}
{"substance": "MANGANESE TETRAKIS(4-CARBOXYPHENYL)PORPHYRIN CHLORDE", "Inhibition (%)": 1}
{"substance": "BERBAMINE HYDROCHLORIDE", "Inhibition (%)": 1}
{"substance": "METHIONINE SULFOXIMINE (L)", "Inhibition (%)": 2}
{"substance": "CRESOL", "Inhibition (%)": 0}
{"substance": "NEOMYCIN SULFATE", "Inhibition (%)": 1}

* * *

Target: LsrK (Salmonella typhimurium)
Test: biochemical
Assay type: biochemical, S. typhimurium
Counter-ions that a name gives are not always drawn.
Items are presented alongside their recorded inhibition at 50 µM.
outcomeMeasure: inhibition at 50 µM (%)

{"compound": "Cc1cc(O)c2c(c1)C(=O)c1cccc(O)c1C2=O [CHRYSOPHANOL]", "outcomeMeasure": "inhibition at 50 µM", "recordedNumber": 1}
{"compound": "CN(C)C(=S)SSC(=S)N(C)C [THIRAM]", "outcomeMeasure": "inhibition at 50 µM", "recordedNumber": 104}
{"compound": "COC(=O)C1=C(C)NC(C)=C(C(=O)OCC(C)C)C1c1ccccc1[N+](=O)[O-] (stereo not drawn) [NISOLDIPINE]", "outcomeMeasure": "inhibition at 50 µM", "recordedNumber": 154}
{"compound": "CC[C@@H](C)C(=O)O[C@H]1[C@H](O)[C@H]2[C@@H](CN3C[C@@H](C)CC[C@H]3[C@@]2(C)O)[C@@H]2C[C@]34O[C@]5(O)[C@@H](OC(=O)[C@@](C)(O)CC)CC[C@@]3(C)[C@@H]5[C@@H](OC(C)=O)[C@@H](OC(C)=O)[C@H]4[C@@]21O [PROT[…]]", "outcomeMeasure": "inhibition at 50 µM", "recordedNumber": 1}
{"compound": "CC(=O)OCC(=O)[C@@]12OC3(CCCC3)O[C@@H]1C[C@H]1[C@@H]3CCC4=CC(=O)C=C[C@]4(C)[C@@]3(F)[C@@H](O)C[C@@]12C [AMCINONIDE]", "outcomeMeasure": "inhibition at 50 µM", "recordedNumber": 1}
{"compound": "N#Cc1ccc2c(c1)N(CCCN1CCC(O)CC1)c1ccccc1S2 [PERICIAZINE]", "outcomeMeasure": "inhibition at 50 µM", "recordedNumber": 4}
{"compound": "O=C(O)CCCO [SODIUM OXYBATE]", "outcomeMeasure": "inhibition at 50 µM", "recordedNumber": 1}
{"compound": "CN(C)CCCO[C@@H]1[C@H]2OC(C)(C)O[C@H]2O[C@@H]1[C@H](O)CO [AMIPRILOSE]", "outcomeMeasure": "inhibition at 50 µM", "recordedNumber": 2}
{"compound": "CCN1CCN(c2cc3c(cc2F)c(=O)c(C(=O)O)cn3C2CC2)CC1 [ENROFLOXACIN]", "outcomeMeasure": "inhibition at 50 µM", "recordedNumber": 1}
{"compound": "O=C1c2c(O)cccc2Cc2cccc(O)c21 [ANTHRALIN]", "outcomeMeasure": "inhibition at 50 µM", "recordedNumber": 8}
{"compound": "CN1CC(=O)N2[C@H](c3ccc4c(c3)OCO4)c3[nH]c4ccccc4c3C[C@@H]2C1=O", "outcomeMeasure": "inhibition at 50 µM", "recordedNumber": 1}
{"compound": "O=c1c(-c2ccc(O)cc2)coc2cc(O)cc(O)c12 [GENISTEIN]", "outcomeMeasure": "inhibition at 50 µM", "recordedNumber": 2}
{"compound": "CC(C)CC(NC(=O)[C@H](C)N)C(=O)O (mixture of isomers) [ALANYL-dl-LEUCINE]", "outcomeMeasure": "inhibition at 50 µM", "recordedNumber": 2}
{"compound": "COc1cc([C@@H]2c3cc4c(cc3[C@@H](O[C@@H]3O[C@@H]5CO[C@@H](C)O[C@H]5[C@H](O)[C@H]3O)[C@H]3COC(=O)[C@H]23)OCO4)cc(OC)c1O [ETOPOSIDE]", "outcomeMeasure": "inhibition at 50 µM", "recordedNumber": 1}
{"compound": "C[C@H](CCC(=O)O)[C@H]1CC[C@H]2[C@@H]3CCC4CCCC[C@]4(C)[C@H]3C=C[C@]12C (stereo partly drawn) [CHOL-11-ENIC ACID]", "outcomeMeasure": "inhibition at 50 µM", "recordedNumber": 45}
{"compound": "CC(C)(O)[C@@H]1[C@H]2OC(=O)[C@@H]1[C@]1(O)C[C@H]3O[C@]34C(=O)O[C@H]2[C@]14C [PICROTIN]", "outcomeMeasure": "inhibition at 50 µM", "recordedNumber": 1}
{"compound": "NS(=O)(=O)c1cc2c(cc1Cl)NC(C(Cl)Cl)NS2(=O)=O (stereo not drawn) [TRICHLORMETHIAZIDE]", "outcomeMeasure": "inhibition at 50 µM", "recordedNumber": 1}
{"compound": "N=C(N)N/N=C/c1c(Cl)cccc1Cl [GUANABENZ ACETATE]", "outcomeMeasure": "inhibition at 50 µM", "recordedNumber": 0}
{"compound": "COC1(C)CCC2OC2(C)CCC2C1CC2(C)C (stereo not drawn)", "outcomeMeasure": "inhibition at 50 µM", "recordedNumber": 0}
{"compound": "COC(=O)Nc1nc2ccc([S+]([O-])c3ccccc3)cc2[nH]1 (stereo not drawn) [OXFENDAZOLE]", "outcomeMeasure": "inhibition at 50 µM", "recordedNumber": 27}
{"compound": "Nc1nc2c(c(=O)[nH]1)N(C=O)C(CNc1ccc(C(=O)N[C@@H](CCC(=O)O)C(=O)O)cc1)CN2 (stereo partly drawn) [LEUCOVORIN CALCIUM]", "outcomeMeasure": "inhibition at 50 µM", "recordedNumber": 5}
{"compound": "C[C@@H]1CC[C@@]2(OC1)O[C@H]1C[C@H]3[C@@H]4CC=C5C[C@@H](O)CC[C@]5(C)[C@H]4CC[C@]3(C)[C@H]1[C@@H]2C [DIOSGENIN]", "outcomeMeasure": "inhibition at 50 µM", "recordedNumber": 0}
{"compound": "C1N2CN3CN1CN(C2)C3 [METHENAMINE]", "outcomeMeasure": "inhibition at 50 µM", "recordedNumber": 2}
{"compound": "COC1=CC(=O)C(O)=C/C1=C\\C=C\\c1ccccc1 [OBTUSAQUINONE]", "outcomeMeasure": "inhibition at 50 µM", "recordedNumber": 130}
{"compound": "Cc1cccc(C)c1NC(=O)C1CCCCN1C (stereo not drawn) [MEPIVACAINE HYDROCHLORIDE]", "outcomeMeasure": "inhibition at 50 µM", "recordedNumber": 15}
{"compound": "COc1ccc(-c2oc3c(CC=C(C)C)c(O[C@@H]4O[C@H](CO)[C@@H](O)[C@H](O)[C@H]4O)cc(O)c3c(=O)c2O[C@@H]2O[C@@H](C)[C@H](O)[C@@H](O)[C@H]2O)cc1 [ICARIIN]", "outcomeMeasure": "inhibition at 50 µM", "recordedNumber": 36}
{"compound": "C[C@H]1[C@@H](O)O[C@@H]2O[C@@]3(C)CC[C@H]4[C@H](C)CC[C@@H]1[C@@]24OO3 [ARTENIMOL]", "outcomeMeasure": "inhibition at 50 µM", "recordedNumber": 0}
{"compound": "CCOC(=O)OC(C)OC(=O)[C@@H]1N2C(=O)[C@@H](NC(=O)[C@H](N)c3ccccc3)[C@H]2SC1(C)C (stereo partly drawn) [BACAMPICILLIN HYDROCHLORIDE]", "outcomeMeasure": "inhibition at 50 µM", "recordedNumber": 5}
{"compound": "CCCCCCCCCCCCCCCC(=O)OC/C=C(C)/C=C/C=C(C)/C=C/C1=C(C)CCCC1(C)C [RETINYL PALMITATE]", "outcomeMeasure": "inhibition at 50 µM", "recordedNumber": 15}
{"compound": "CO[C@H]1/C=C/O[C@@]2(C)Oc3c(C)c(O)c4c(O)c(c(/C=N/N5CCN(C)CC5)c(O)c4c3C2=O)NC(=O)/C(C)=C\\C=C\\[C@H](C)[C@H](O)[C@@H](C)[C@@H](O)[C@@H](C)[C@H](OC(C)=O)[C@@H]1C [RIFAMPIN]", "outcomeMeasure": "inhibition at 50 µM", "recordedNumber": 18}
